Origin of measurements: the supplement of paper PMC9732359

protein stability index values by entry
- Experiment Summary: protein stability index of a GFP-peptide fusion (yeast GPS) (PSI 1-4); higher = more stable; sorted into four equal gates, so the index is relative within each strain
- Run Parameters: pdr5∆
Test Readout: protein stability index

1) YINDVHLLYPPHIIAVA [SSN8] = 1.46
2) AIRADPAFKPTEKKFTK [RPL5] = 3.15
3) KFQLKKVLCLAVAVGNV [RPL1A] = 1.25
4) VSKVQKRKVLELKKKRK [SRP72] = 2.57
5) PHLFVNGDLTVSLCAKN [SSN2] = 2.12
6) LYNKIWTEASSSGAGTV [ECM29] = 1.76
7) SKEGQYKAKIKELENNL [YIL149C/MLP2] = 1.49
8) QLVYKRGFGKINKQRVP [RPL7A] = 2.4
9) SKQNGSKFHFSWNESED [PRP28] = 2.94
10) NDANITSNKEGFNSIWK [SSN2] = 3.26

* * *

- Experiment Summary: protein stability index of a GFP-peptide fusion (yeast GPS) (PSI 1-4); higher = more stable; sorted into four equal gates, so the index is relative within each strain
- Run Parameters: pdr5∆
Test Readout: protein stability index

1. QLFSTFDRLNGNDTISK [SSN2] = 3.02
2. DKFRKACSSSGRETILS [SIR3] = 2.08
3. RVKDPQWLIMLGICTHL [RIP1] = 2.48
4. EISISFDVNNIDMHLIY [YDL116W/NUP84] = 2.43
5. NTSAIQETASPLSQDEL [YIL149C/MLP2] = 1.39
6. IFIATQLEKKIRFVCLS [BRR2] = 1.86
7. IDIQTQDLNQRFQDPYV [RRI1] = 2.86
8. TGPFKVNGVPLRRVNAR [RPL6B] = 2.49
9. EIVWTSSLIKAGLDKGI [RPO31] = 1.96
10. GPSATDPETTATQKESL [RGR1] = 2.87
11. IGLLNKSKSSLDGKFSL [RPN2] = 2.85
12. YVYRASKEVRGSKIRVM [RPL33A] = 2.81
13. PTDDKTLKPTFSFTEPA [YOR098C/NUP1] = 2.65
14. FNGYNPEKKEMIQEVIV [FAS2] = 3.46
15. PTQTVAELDLMSGILHC [RPN6] = 3.07
16. ELLANKCPLLVEVDITL [GRR1] = 1.58
17. QPQQQLGDMENNLEKYP [RTT102] = 3.15
18. EQHHINNLKNSGNSANN [GAL11] = 2.09
19. GGQIAHILFQNNPDMMI [ROX3] = 2.63
20. GATKIVREHYLRSDIPC [DIS3] = 2.63
21. IILSIDEHHESFELKEE [RRP6] = 2.99
22. DNSESHPFIPLLKEKPN [RRP6] = 1.93
23. RFKNSVKWYHFDHNDKK [PRE7] = 2.76
24. LDSLMKTTRLLLIIRSL [YJL039C/NUP192] = 1.39
25. TNYYLTTARNDLGVVFA [CSL4] = 2.39
26. RELLNPRYTYHTIFSDV [YML031W/NDC1] = 3.05
27. QRDLYKRKEELVSTLTT [SMC2] = 1.91
28. VRPSISFNESQRGEDDL [RPO21] = 2.81
29. RGRGRGRGRGRGRPPKA [SNF2] = 3.2
30. VDDDQDYVVAPGVNREI [GRR1] = 3.13
31. LGVEDITLIDSASLHLN [RET1] = 1.61
32. YQELAYRATSLDPSLRA [YML031W/NDC1] = 2.89
33. FVKNIRMLSFEDISKAT [RPN9] = 1.86
34. KELMLQSKKLIEEKLSS [YIL149C/MLP2] = 2.96
35. VVILARAKALGIKVTNP [RPL32] = 3.2
36. PGNGKHASENISLSFSR [SIR4] = 2.88
37. FTVDKKIAERSLLLKNY [SKP1] = 3.11
38. LKESYSQKHNGRILKWL [CDC53] = 2.69
39. VRLQRQKKILSIRLKVP [RPL8B] = 1.29
40. TVSRAYGGSRCANCVKE [RPL34A] = 2.96
41. TIYNNIREGQNQKIPDN [SIR3] = 3.18
42. YTLTEEGVEYLREYLNL [RPS10A] = 3.37
43. KTVAVDSVFEQNEMIDA [RPL3] = 2.75
44. RTKTPGPGGQAALRALA [RPS14B] = 2.55
45. TLSLPDSQDYILSINAI [SMC1] = 2.95
46. IKSIIEQRKQKLSKILP [SMC3] = 2.7
47. WKYNNFLQKFEIAFHLT [YML103C/NUP188] = 2.19
48. YLAKELNLTGPKVPEDI [RPN1] = 3.24
49. EKNGGLGWDLDAIIPFA [FAS2] = 3.22
50. AQANNNNNGLPQNGNIN [GAL11] = 3.11
51. FSKFERSKSSHKNERRV [SKI6] = 3.16
52. LFGNNNTNNINNSSSGM [YGL172W/NUP49] = 3.42
53. IMNVLSEGFEPTFSTHA [PRP8] = 2.94
54. VFENYVKKTGENEISSL [CDC53] = 2.74
55. EKSPDPTIRSNAVLGLG [YCS4] = 2.26
56. MVEWLESRSFSPIPFPP [PRP8] = 2.83
57. DSENNEENSSSNGNNLP [RGR1] = 2.96
58. KCGSVTVRLIPAPRGSG [RPS2] = 2.07
59. QKSFEQLNSRAVAVVVD [RPN11] = 1.72

* * *

- Experiment Summary: protein stability index of a GFP-peptide fusion (yeast GPS) (PSI 1-4); higher = more stable; sorted into four equal gates, so the index is relative within each strain
- Run Parameters: san1∆
Class (by protein stability index) -- c1: < 2; c2: ≥ 2 and < 3; c3: ≥ 3

1. VQGMNDDIFIRYLTLLS [ECM29] = c1
2. VDLWSVGCIFAELIGLQ [SSN3] = c3
3. DNISSFHSAVENLVQGN [YCG1] = c3
4. KVLINDQLSTISMILRN [SWI1] = c2
5. IPHDLNFLQESYEVEHV [TAF14] = c2
6. SLNTKKNEKLILEESLN [SMC3] = c2
7. KQRAGTASFIPLDTIET [SMC1] = c2
8. TLSLPDSQDYILSINAI [SMC1] = c2
9. RRSTPFSKIAEYYRIQK [ESC2] = c2
10. QPNARALERYDEAEGRF [SMC1] = c3
11. KAGVEAISQSLRDESLT [PRE5] = c3
12. VIFNDNVTETYSVYLIH [SIR3] = c2
13. YGILSIDDLIHEIITVG [RPL7A] = c2
14. QAYQFLNTFGSKICLSH [ITC1] = c1
15. ALVAGIERYPLKVTKKH [RPL27A] = c1
16. QEGKISSVYRLKFAVQV [RPL26A] = c3
17. EGIIKPISKHSKQAIYT [RPS25A] = c1
18. FITRLAQGLLHLGKGTM [RPN1] = c2
19. FKYIYELILAGAIDEAL [YDL116W/NUP84] = c1
20. GGKSVGFGLVYNSVAEA [RPS24A] = c3
21. LIRLQMEKLDAKLNHLK [SWI3] = c2
22. RIYDREPTVRIQAVFCL [YCG1] = c1
23. NFPDEDDDDSRKSAPVD [SKP1] = c3
24. EIEQNTELLDEFIAAVN [RPN10] = c2
25. KQREIVKAFLSIFEDAI [NUT1] = c2
26. DLPETGFFENIETEFLL [IRR1] = c3
27. YQRPMQVQGQQQAQSFV [SSN3] = c2
28. GKHNLTIWCVCDSYLDA [BRR2] = c2
29. PDYYVSILSFVDKELLE [RPT2] = c2
30. ALSGNEGDASPFTDITV [RPB2] = c3
31. IHNTKLPAYSGEIGDFF [POP1] = c3
32. VTLDITTLTIMRILPRE [RPT4] = c2
33. QTYGETTAVDALQKGLK [RPC19] = c1
34. SNNTAATADTTHLHEAL [NUT1] = c3
35. MGPPSGKTYMGWWGHMG [QCR8] = c3
36. DWPTYVDQNPLTMHKII [SRB8] = c2
37. IVERETNWIIYPLWVMA [CSN12] = c2
38. KLIEKKSAYANTEKDYK [SMC2] = c2
39. QRIAKNDPEYMDTSDDA [DLS1] = c2
40. AAVIMRCKIYFFYLRIS [PCI8] = c1
41. IKNLPADVSKLMYSITF [SRB2] = c2
42. LTYLYEMKNIRGPYLVI [SNF2] = c1
43. KLFNRIVERETNWIIYP [CSN12] = c2
44. YDYYALQLLPLQKAVRG [SNF2] = c1
45. KKNNKIKESSKKIKGKS [SRP21] = c3
46. PTHYKIPAWFLNRQNDI [RPS18A] = c1
47. VFMLDTKRLGTPESVKP [RGR1] = c2
48. THVANFMNDAAADVSAV [YML103C/NUP188] = c2
